Target: RNAP core beta' D359AzF Dylight488;sigmaE rpoC:D359 (Mycobacterium tuberculosis;Mycobacterium tuberculosis) (UniProt P9WGZ1+P9WGZ1+P9WGY9+P9WGY7+P9WGY5+P9WGG7)
Assay: FRET
ENDPOINT: Kd (nM)
Numbers only, in nM.

Would you kindly share the measured Kd for GTGGCCCTTGTGGGAGCGTCGGCCATAGCGGCCTCCCGGTCGGCTTGCGCTG / CAGCGCAAGCCGACCGGGAGGCCGCTATGGCCGACGCTCCCACAAGGGCCAC / UUUUUUUCCGCUAUG ?
335
